Some molecules, each annotated with its measured TGI.
Test system: SF-539 CNS
Assay: NCI tumour cell line growth inhibition, 48 h
METRIC: TGI

# MOLECULE, METRIC, RESULT
measured = [
    ("C1C[OH+]CCNCC[OH+]CC[OH+]CCN1.[Cl-].[Pt+4]", "TGI", "> 100 µM"),
    ("C[C@]12CC[C@@H]3c4ccc(O)cc4CC[C@H]3[C@@H]1CC[C@@H]2NS(=O)(=O)c1cccc(F)c1", "TGI", "14.1 µM"),
    ("Nc1cccc(Nc2nc3ccccc3nc2NS(=O)(=O)c2ccccc2)c1", "TGI", "45.3 µM"),
    ("O=C1CCCCC(=O)OC2(CCCCC2=O)CC1 (configuration not stated)", "TGI", "> 100 µM"),
    ("CC1(CF)SCc2nc3ccccc3n21 (configuration not stated)", "TGI", "> 100 µM"),
    ("CC(=O)c1sc(-c2nc(C)c(C(=O)/C=C\\c3ccc(/C=C\\C(=O)c4sc(-c5nc(C)c(C(C)=O)s5)nc4C)cc3)s2)nc1C", "TGI", "> 100 µM"),
    ("NP(=O)(OCC1=CC(=O)c2ccccc2C1=O)N(CCBr)CCBr (configuration not stated)", "TGI", "18.7 µM"),
    ("Cc1ccc(S(=O)(=O)NCCNc2nccc(-c3c(-c4ccc(F)cc4)nc4sccn34)n2)cc1", "TGI", "31 µM"),
    ("O=S1OC2(c3ccccc3-c3ccccc32)c2ccccc21 (configuration not stated)", "TGI", "> 100 µM"),
    ("C=C1C(=O)O[C@H]2[C@H]1CC/C(COC(=O)c1ccc(Cl)nc1)=C\\CC[C@@]1(C)O[C@@H]21", "TGI", "3.61 µM"),
    ("COc1ccc(/C=N/N=C(\\N)NO)c(O)c1", "TGI", "> 10 µM"),
    ("COc1ccc(-c2oc3cc(O)c(OC)c(O)c3c(=O)c2OC)cc1O", "TGI", "21.9 µM"),
    ("O=c1c2ncn(COCCCl)c2n(-c2ccccc2)c(=S)n1-c1ccccc1", "TGI", "> 100 µM"),
    ("CNC(=O)Oc1ccc(-c2cn3cc(OC(=O)NC)ccc3n2)cc1", "TGI", "> 100 µM"),
    ("C[n+]1cc(C(O)c2ccc3c(c2)OCO3)c2ccccc2c1 (configuration not stated)", "TGI", "> 100 µM"),
    ("Cc1cc(C2CC(O)C(CO)O2)cc2c(=O)[nH]c(N)nc12 (configuration not stated)", "TGI", "> 100 µM"),
    ("O=C(Nc1ccc(-c2ccccc2)cc1)C1CCN(S(=O)(=O)c2ccccc2Cl)CC1", "TGI", "37.3 µM"),
]
